Where do the numbers come from? From patent US11091471B2.

Please respond with reported pKi for every item in the list.
target: h-GABA-A α5β3γ2 (Homo sapiens (Human), UniProt P18507+P31644); assay: [3H]flumazenil competition binding assay, membranes of HEK293 cells expressing human GABAA receptors; settings: Table 1, displacement of [3H]-Flumazenil 0.5 nM, mean of two determinations
The value called pKi is obtained by taking minus log10 of the concentration in mol/L.

Complete the entry with pKi for O=C(N[C@H]1CCOC1)c1ccc(OCc2c(-c3ccc(Cl)nc3)noc2C2CC2)nn1 7.37

Complete the entry with pKi for Cc1ccc(-c2noc(C)c2COc2ccc(C(=O)NC3CCCOCC3)nn2)cn1 (racemic) 7.83

Complete the entry with pKi for Cc1ccc(-c2noc(C)c2COc2ccc(C(=O)NC(C)(C)CCS(C)(=O)=O)nn2)cn1 7.88

Complete the entry with pKi for Cc1ccc(-c2noc(C)c2COc2ccc(C(=O)NC(C)C(F)(F)F)nn2)cn1 (racemic) 7.88

Complete the entry with pKi for Cc1ccc(-c2noc(C)c2COc2ccc(C(=O)NC3CCOC3)nn2)cn1 (racemic) 8.18

Complete the entry with pKi for Cc1ccc(-c2nocc2COc2ccc(C(=O)NC3CCOCC3)cn2)cn1 7.12

Complete the entry with pKi for Cc1ccc(-c2noc(C)c2COc2ccc(C(=O)N[C@@H]3CC[C@@H](O)C3)nn2)cn1 (racemic) 8.28

Complete the entry with pKi for Cc1ccc(-c2noc(C)c2COc2ccc(C(=O)NC3CCOC(C)(C)C3)nn2)cn1 (racemic) 7.79

Complete the entry with pKi for Cc1ccc(-c2noc(C)c2COc2ccc(C(=O)NC3(C)CCOC3)nn2)cn1 (racemic) 7.76
